Tested on: FLT4 (human), P35916 [Q890H]
Sequence (P35916 whole entry, looked up, stated change not applied): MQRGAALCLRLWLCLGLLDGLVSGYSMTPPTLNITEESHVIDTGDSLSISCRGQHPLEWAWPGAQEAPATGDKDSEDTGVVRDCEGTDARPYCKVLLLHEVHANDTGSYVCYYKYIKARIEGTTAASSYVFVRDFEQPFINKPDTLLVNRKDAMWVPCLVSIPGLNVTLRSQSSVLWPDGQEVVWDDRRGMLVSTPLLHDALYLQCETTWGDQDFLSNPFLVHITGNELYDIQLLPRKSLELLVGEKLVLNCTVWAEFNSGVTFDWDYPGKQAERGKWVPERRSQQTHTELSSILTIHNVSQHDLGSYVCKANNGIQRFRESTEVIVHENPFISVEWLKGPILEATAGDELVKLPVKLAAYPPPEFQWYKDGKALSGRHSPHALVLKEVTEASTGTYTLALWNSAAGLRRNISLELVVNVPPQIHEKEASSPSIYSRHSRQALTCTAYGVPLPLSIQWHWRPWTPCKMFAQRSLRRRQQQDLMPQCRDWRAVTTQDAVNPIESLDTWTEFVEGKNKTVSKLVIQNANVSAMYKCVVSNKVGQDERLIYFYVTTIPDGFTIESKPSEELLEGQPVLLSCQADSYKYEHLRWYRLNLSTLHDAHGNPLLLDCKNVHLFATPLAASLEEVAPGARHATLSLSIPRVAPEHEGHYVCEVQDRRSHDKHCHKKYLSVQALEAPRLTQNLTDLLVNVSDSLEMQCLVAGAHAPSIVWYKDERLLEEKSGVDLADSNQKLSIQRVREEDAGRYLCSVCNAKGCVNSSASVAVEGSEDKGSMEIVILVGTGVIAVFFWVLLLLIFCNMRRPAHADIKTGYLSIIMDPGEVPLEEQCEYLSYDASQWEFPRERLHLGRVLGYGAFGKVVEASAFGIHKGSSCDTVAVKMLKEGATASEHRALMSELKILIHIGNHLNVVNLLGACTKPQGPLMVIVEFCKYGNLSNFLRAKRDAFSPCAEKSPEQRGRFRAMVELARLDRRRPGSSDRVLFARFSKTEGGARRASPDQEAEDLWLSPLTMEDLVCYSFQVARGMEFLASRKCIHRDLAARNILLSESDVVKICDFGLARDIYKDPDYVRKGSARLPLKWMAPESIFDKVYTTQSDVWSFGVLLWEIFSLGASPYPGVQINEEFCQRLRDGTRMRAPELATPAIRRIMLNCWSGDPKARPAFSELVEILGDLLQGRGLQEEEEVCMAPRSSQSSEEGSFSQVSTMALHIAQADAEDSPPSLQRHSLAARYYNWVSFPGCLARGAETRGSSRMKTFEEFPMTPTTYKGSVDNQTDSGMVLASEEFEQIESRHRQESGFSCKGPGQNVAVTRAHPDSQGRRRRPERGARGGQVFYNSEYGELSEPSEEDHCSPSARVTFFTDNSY
assay: radiometric filter-binding kinase assay, Kinase HotSpot
conditions_used: compound 0.5 µM; ATP 10 µM
assay_metric: residual activity (%)
State just the number; it will be interpreted in %.

I am curious: what residual activity value has been reported for N#Cc1c(NC(=O)c2cccc3ccccc23)sc2c1CCCC2 ?
89.8

And then COc1cccc(-c2cc(=O)c3ccccc3o2)c1N , what is it?
90.8

Similarly, Nc1n[nH]c2nnc(-c3c(-c4ccccc4)nn4ccccc34)cc12 ?
89.9
